Target: T1, LILRB1-ECD-HIS (SinoBiological Cat #: 16014-H02H) (human, UniProt Q8NHL6 24-461)
T1 construct: Bought protein; also called monomeric antigen LILRB1-ECD-HIS; not shown: His tag
T1 sequence (Q8NHL6 other isoform, or with tags, fused parts or gaps H02H H02H): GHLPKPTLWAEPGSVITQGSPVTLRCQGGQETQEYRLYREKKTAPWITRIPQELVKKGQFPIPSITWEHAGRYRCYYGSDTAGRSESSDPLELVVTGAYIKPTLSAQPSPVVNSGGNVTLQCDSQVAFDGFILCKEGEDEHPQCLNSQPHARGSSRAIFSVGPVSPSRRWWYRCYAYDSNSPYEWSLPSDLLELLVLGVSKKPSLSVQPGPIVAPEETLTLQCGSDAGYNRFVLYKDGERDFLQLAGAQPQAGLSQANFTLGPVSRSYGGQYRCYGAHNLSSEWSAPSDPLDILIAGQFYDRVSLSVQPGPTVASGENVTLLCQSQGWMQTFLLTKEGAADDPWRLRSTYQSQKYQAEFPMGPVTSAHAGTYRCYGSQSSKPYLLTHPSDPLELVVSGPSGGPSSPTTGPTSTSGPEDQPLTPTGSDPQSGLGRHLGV
Test: SPR (Carterra LSA), antibody captured, antigen injected;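 also: kd obtained from kinetic analysis of antibody binding to the antigen, with association and dissociation phases fitted in the instrument software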
Examples of binders with documented Kd follow.
Quick reminder: number only, in nM, skip the unit.

A selection of reference data follows.
- binder: "#22 (antibody, human IgG1, V domains shown, also called D2M002-022) VH: QVQLQQSGAELMKPGASVKISCKATGYTLSSYWIEWVKQRPGHGLEWIGEILPGSGSTNYNEKFKGKATFTADTSSNTAYMQLSSLTSEDSAVYYCARSGAGGYDSGAFAYWGQGTLVTVSA VL: DIVLTQSPASLAVSLGQRATISCRASESVDTYGNSFMHWYQQKPGQPPKLLIYRTSNLESGIPARFSGSGSRTDFTLTINPVEADDVATYYCQQSNEDPWTFGGGTKLEIK"
  unit-label: "nM"
  Kd: 0.588
- binder: "#35 (antibody, human IgG1, V domains shown, also called D2M002-035) VH: QVQLQQSGAELMKPGASVRISCKATGYTFSSSWIEWVKQRPGHGLEWIGEILPGSGSTNYNEKFKGKATFTADTSSNTAYMQLSSLTSEDSAVYYCARSGAGGYDSGAFTYWGQGTLVTVSA VL: DIVLTQSPASLAVSLGQRATISCRASESIDTYGNSFMHWYQQKPGQPPKLLIYRASNLESGIPARFSGSGSRTDFTLTINPVEADDVATYYCQQSNEDPWTFGGGTKLEIK"
  unit-label: "nM"
  Kd: 10.4

# evaluate next
Recorded Kd (binder #23 (antibody, human IgG1, V domains shown, also called D2M002-023) VH: QVQMQQPGAELMKPGASVKISCKATGYTFSRYWIEWVKQRPGHGLEWIGEILPGDGSTNYNAKFKGQATFTADTSSNTAYMQFSSLTYEDSAVYYCARSGAGGYDSGAFAYWGQGTLVTVSS VL: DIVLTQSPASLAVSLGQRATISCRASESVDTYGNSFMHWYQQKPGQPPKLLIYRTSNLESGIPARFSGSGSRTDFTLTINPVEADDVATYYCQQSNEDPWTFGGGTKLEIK ): 7.65
